ASSAY_OVERVIEW: MTS viability
Type: cell-based
ASSAY_SETUP: human (JMAR, MDA-1986, SKMEL-28, MRC-5) and mouse (B16F10), Cytotoxicity IC50 (inactive for all cell lines used), all cell lines used (B16F10, SKMEL-28, JMAR, MDA-1986, MRC-5)
Below: a set of entries, each annotated with reported IC50.

COMPOUND	IC50
CC1=C(CO)C(=O)O[C@@H]([C@@H](C)[C@H]2CC[C@H]3[C@@H]4C[C@H]5O[C@]56[C@@H](O)[C@@H](O)CC(=O)[C@]6(C)[C@H]4CC[C@]23C)C1	> 10 µM
CC1=C(CO)C(=O)O[C@@H]([C@@H](C)[C@H]2CC[C@H]3[C@@H]4C[C@H]5O[C@]56[C@@H](O)CCC(=O)[C@]6(C)[C@H]4CC[C@]23C)C1 [Compound 20, 2,3-dihydrowithaferin A]	> 10 µM
CC1=C(CO)C(=O)O[C@@H]([C@@H](C)[C@H]2CC[C@H]3[C@@H]4C[C@@H]5O[C@@H]6CC(=O)[C@](C)([C@H]4CC[C@]23C)[C@@]5(O)[C@H]6O)C1	> 10 µM

###

ASSAY_OVERVIEW: MTS viability
Format: cell-based
ASSAY_SETUP: human (JMAR, MDA-1986, SKMEL-28, MRC-5) and mouse (B16F10)
pIC50: −log10 of the molar value.

COMPOUND	pIC50
CC1=C(CO)C(=O)O[C@@H]([C@@H](C)[C@H]2CC[C@H]3[C@@H]4C[C@H]5O[C@]56[C@@H](O)C=CC(=O)[C@]6(CO)[C@H]4CC[C@]23C)C1 [Compound 1, 19-hydroxywithaferin A]	5.03 to 7.17
CC1=C(CO)C(=O)O[C@@H]([C@@H](C)[C@H]2CC[C@H]3[C@@H]4CC=C5C=CC(=O)[C@]5(C)[C@H]4CC[C@]23C)C1	< 5.00
